Reference source: ChEMBL document CHEMBL1139805

System: Trypanosoma cruzi
Assay: Antitrypanosomal activity against Trypanosoma cruzi after 72 hrs
Type: functional, organism-based
resultType: IC50

Reference set (8 entries):
INSERT INTO assay_data (molecule, endpointvalue) VALUES
  ('COC(=O)c1cc(Br)c(Br)[nH]1', '> 30 µg/mL'),
  ('O=C(Cn1ccnc1[N+](=O)[O-])NCc1ccccc1 [BENZNIDAZOLE]', '0.17 µg/mL'),
  ('NC/C=C/c1cnc(N)[nH]1', '2.5 µg/mL'),
  ('Nc1ncc(/C=C/CNC(=O)c2cc(Br)c(Br)[nH]2)[nH]1.O=C(O)C(F)(F)F [OROIDIN TFA SALT]', '> 30 µg/mL'),
  ('O=C(O)C(F)(F)F.O=C(O)c1cc(Br)c(Br)[nH]1', '> 30 µg/mL'),
  ('Nc1ncc(/C=C/CNC(=O)c2cc(Br)c(Br)[nH]2)[nH]1 [OROIDIN]', '> 30 µg/mL'),
  ('O=C(O)c1cc(Br)c(Br)[nH]1', '> 30 µg/mL'),
  ('CC[C@@H](CC[C@@H](C)[C@H]1CC[C@H]2C3=CC[C@H]4C[C@@H](O)CC[C@]4(C)[C@H]3CC[C@]12C)C(C)C', '> 30 µg/mL');

Turning now to a further molecule:
### Prompt Output IC50 of NCCS(=O)(=O)O [TAURINE]
### Response > 30 µg/mL

* * *

Tested on: Plasmodium falciparum
Test: Antimalarial activity against chloroquine-resistant, pyrimethamine-resistant Plasmodium falciparum K1 after 48 hrs
Format: functional, organism-based
Conditions: K1, 48 h
Each entry below carries its reported IC50.
Give the value in µg/mL but do not write µg/mL after it.

INSERT INTO results (compound, endpointvalue) VALUES
  ('O=C(O)C(F)(F)F.O=C(O)c1cc(Br)c(Br)[nH]1', 49.9);

### Prompt Using known records, supply IC50 for Nc1ncc(/C=C/CNC(=O)c2cc(Br)c(Br)[nH]2)[nH]1.O=C(O)C(F)(F)F [OROIDIN TFA SALT]
### Response 7.9

* * *

Recorded below: pIC50, system Enoyl-acyl-carrier protein reductase (Plasmodium falciparum).
# reply with the number alone; pIC50 is -log10 of concentration in mol/L

Some molecules with recorded pIC50:
INSERT INTO measurements (molecule, endpointvalue) VALUES
  ('Nc1ncc(/C=C/CNC(=O)c2cc(Br)c(Br)[nH]2)[nH]1.O=C(O)C(F)(F)F [OROIDIN TFA SALT]', 5.00),
  ('Oc1cc(Cl)ccc1Oc1ccc(Cl)cc1Cl [TRICLOSAN]', 7.32);

### Prompt Report pIC50 on Enoyl-acyl-carrier protein reductase (Plasmodium falciparum) for this entry: "O=C(O)C(F)(F)F.O=C(O)c1cc(Br)c(Br)[nH]1"
### Response 3.98

### Prompt Determine reported pIC50 for Nc1ncc(/C=C/CNC(=O)c2cc(Br)c(Br)[nH]2)[nH]1 [OROIDIN] ; test system: Enoyl-acyl-carrier protein reductase (Plasmodium falciparum).
### Response 6.11

* * *

Molecular target: Enoyl-acyl-carrier protein reductase (Plasmodium falciparum, UniProt Q965D5)
Sequence (Q965D5 whole entry): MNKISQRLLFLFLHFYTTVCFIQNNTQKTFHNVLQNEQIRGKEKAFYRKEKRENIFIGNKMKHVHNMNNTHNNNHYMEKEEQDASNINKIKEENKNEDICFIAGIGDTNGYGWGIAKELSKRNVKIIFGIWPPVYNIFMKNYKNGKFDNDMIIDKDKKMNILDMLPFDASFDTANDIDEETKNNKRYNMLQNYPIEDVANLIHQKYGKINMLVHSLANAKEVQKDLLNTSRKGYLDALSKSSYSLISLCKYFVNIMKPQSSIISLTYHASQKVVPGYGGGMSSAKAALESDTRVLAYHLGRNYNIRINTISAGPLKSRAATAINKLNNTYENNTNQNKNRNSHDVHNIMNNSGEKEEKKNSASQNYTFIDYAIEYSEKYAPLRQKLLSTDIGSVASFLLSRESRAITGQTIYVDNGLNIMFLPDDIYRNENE
# IC50 per record follows

Please review the entries below; each comes with its answer.
INSERT INTO results (structuresmilesstring, resulttype, endpointvalue) VALUES
  ('COC(=O)c1cc(Br)c(Br)[nH]1', 'IC50', '> 353 µM'),
  ('O=C(O)c1cc(Br)c(Br)[nH]1', 'IC50', '> 372 µM'),
  ('NCCS(=O)(=O)O', 'IC50', '> 799 µM');

Now take the following compound into account.
### Prompt Indicate the recorded IC50 value for this compound: "NC/C=C/c1cnc(N)[nH]1"
### Response > 724 µM
